Each recorded value in this set is attributed to paper PMC4581724.

Target: CrAS3MT (Chlamydomonas reinhardtii, UniProt K0BVM7)
Sequence (K0BVM7 1-379): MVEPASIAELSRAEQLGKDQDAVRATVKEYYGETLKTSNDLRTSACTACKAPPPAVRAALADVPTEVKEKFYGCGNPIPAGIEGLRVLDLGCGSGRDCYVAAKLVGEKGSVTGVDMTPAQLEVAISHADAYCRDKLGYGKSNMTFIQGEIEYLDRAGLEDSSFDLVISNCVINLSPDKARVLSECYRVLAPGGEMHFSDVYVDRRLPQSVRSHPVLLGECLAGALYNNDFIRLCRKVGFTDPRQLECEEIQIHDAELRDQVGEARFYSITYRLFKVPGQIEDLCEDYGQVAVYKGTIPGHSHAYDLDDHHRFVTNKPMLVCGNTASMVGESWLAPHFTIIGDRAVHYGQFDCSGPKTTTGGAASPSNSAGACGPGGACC
Assay: biochemical
Format: biochemical
Details: read-out: IC50 for inhibition of SAH production (half-maximal inhibition)
measuredMetric: IC50 (µM)
// return numeric value only (unit: µM, not printed)

For the compound CSS(C)(=O)=O [MMTS, methylmethanethiosulfonate] , give its measured IC50 value.
43
